Test system: HepG2
Experiment: cell viability relative to DMSO; higher = less toxic
Conditions: 72 h; 1000 nM
Kindly supply the reported cell viability values for the records listed here.
Numbers only; they are read as %.

Tell me cell viability reported for COc1cc2c(c(OC)c1OC)-c1c(cc3c(c1OC)OCO3)CC(C)C(C)C2 (centres undefined)
105

Return value of cell viability for input `COc1ccc(Cn2ccc3ccc(C(=O)NO)cc32)cc1` , no commentary.
94.2

Output measured cell viability for this item: `CCNC(=O)CC[C@H](N)C(=O)O`
89.8

Query cell viability for `CC(=O)NC[C@H]1CN(c2ccc(-c3ccc(CNCc4cnn[nH]4)cc3)c(F)c2)C(=O)O1`
54.4

Identify the reported cell viability for the following entry. `O=C(O)c1cc2occc2[nH]1`
92.6

Provide only the value of recorded cell viability for `COc1ccc2nc3[nH]nc(C)c3c(NCCOCCO)c2c1`
87.6

Tell me its cell viability given `CCCCN(CCCC)C(=O)CN1C[C@H](c2ccc3c(c2)OCO3)[C@@H](C(=O)O)[C@@H]1c1ccc(OC)cc1` as the entry.
104

State its cell viability for this molecule: `O=C(c1cncc(Br)c1)N1CCC(N2CCCC2)CC1`
93.4

Please supply the value of reported cell viability for the item `O=C1CCc2ccc(OCCCCN3CCN(c4cccc(Cl)c4Cl)CC3)cc2N1`
100

Assign cell viability to the following record: `Cc1cc(C)c2c(N)c(C(=O)NCc3ccc(Cl)cc3)sc2n1`
91.6

Identify measured cell viability corresponding to `COc1cc2c(c(OC)c1OC)-c1ccc(OC)c(=O)cc1[C@@H](NC(C)=O)CC2`
34.8

Answer with the recorded cell viability for the molecule listed here: CC(C)Cc1ccc([C@@H](C)C(=O)NCCO)cc1 (racemic)
95.3

Answer with reported cell viability of `CC[C@@H](C)N(C)C(=O)c1cc2ccccc2c(-c2ccccc2Cl)n1`
100

Report measured cell viability; entry is `CC(C)[C@H](N)C(=O)OCCOCn1cnc2c(=O)nc(N)[nH]c21`
99.5

Give cell viability for the following molecule: `C#C[C@]1(O)CC[C@H]2[C@@H]3CCC4=CC(=O)CCC4=C3C=C[C@@]21CC`
103

Complete the entry with cell viability for `CCCCOc1ccc(-c2cncc(C(=O)NCc3cccnc3N3CCOCC3)c2)cc1Cl`
106

# return recorded cell viability for entry `Cn1ccnc1S`
81.7

Let me know recorded cell viability for `CC(=O)NC1=NN(C(C)=O)[C@](C)(c2ccccc2)S1` , thanks.
106

Tell me cell viability reported for CC(=O)Nc1ccc(OCC(O)CNC(C)C)cc1 (centres undefined)
109

Complete the entry with cell viability for `COc1cccc2cc(-c3nc([C@H]4CC[C@H](C(=O)O)CC4)n4ncnc(N)c34)[nH]c12`
48.8

Identify the reported cell viability for the following entry. `O=C(O)CCc1ccc(NCc2cccc(Oc3ccccc3)c2)cc1`
99.8

Note down cell viability recorded for COc1ccnc(C[S+]([O-])c2nc3cc(OC(F)F)ccc3[nH]2)c1OC (centres undefined)
99.2

Answer with reported cell viability of `O=c1cc(-c2ccccc2)oc2cc(O)c(O)c(O)c12`
101

Quick one: give measured cell viability for `C[C@H](NC(=O)/C(C#N)=C/c1cccc(Br)n1)c1ccccc1`
94.2

Specify reported cell viability for the molecule shown: `COc1cc2c(cc1OC)CN(C(=O)[C@@H](NCc1ccncc1)C(C)(C)C)CC2`
94.3

Consider the molecule COc1ccc(C(=O)NCc2ccc(OCCN(C)C)cc2)cc1OC [itopride] . State its measured cell viability.
90.3

Tell me cell viability reported for N#CC(c1ccc(Cl)cc1)c1c(Cl)cc(-n2ncc(=O)[nH]c2=O)cc1Cl (centres undefined)
110

Look up and report measured cell viability for this entry: `Oc1c(Cl)cc(Cl)cc1Sc1cc(Cl)cc(Cl)c1O`
83.1

Please supply the value of reported cell viability for the item `C[n+]1c2cc(N)ccc2cc2ccc(N)cc21.Nc1ccc2cc3ccc(N)cc3nc2c1`
29.2

Name the recorded cell viability of the molecule listed here: `CNCCn1c(=O)c2cc(OC)c(OC)cc2c2cnc3cc4c(cc3c21)OCO4`
18.6

Please give measured cell viability of the following entry: CCCCCCCC/C=C/CCCCCCCC(=O)OC[C@H]1O[C@@H](n2ccc(N)nc2=O)C(F)(F)[C@@H]1O [gemcitabine-elaidate]
35.8

Give the reported value of cell viability for this record: CC(Cc1cccc(C(F)(F)F)c1)NCCOC(=O)c1ccccc1 (centres undefined)
99.4

Give the value of cell viability reported for the following: `Ic1cc(-c2ccccc2)ncn1`
105

Using the record for `Cc1cccn2c(=O)c(-c3nnn[nH]3)cnc12` , state its measured cell viability.
96.2
